This collection of values is drawn from patent US20240101668A1.

Below, each entry is listed with its recorded geometric mean MFI fold change over Jurkat parental.
molecular target: T1, huCD33-G69 stably expressed on Jurkat cells (human, UniProt P20138 18-364); experiment: FACS on cells;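 note: fixed Jurkat cells bearing either CD33 variant, barcoded by dye, exposed to myc-tagged scFv periplasmic extracts, detected with anti-myc PE antibody and read by flow cytometry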
T1 construct: whole, on cells; >200,000 receptors per cell; also called CD33 Mutant; CD33 R69G
T1 sequence (P20138 18-364 R69G): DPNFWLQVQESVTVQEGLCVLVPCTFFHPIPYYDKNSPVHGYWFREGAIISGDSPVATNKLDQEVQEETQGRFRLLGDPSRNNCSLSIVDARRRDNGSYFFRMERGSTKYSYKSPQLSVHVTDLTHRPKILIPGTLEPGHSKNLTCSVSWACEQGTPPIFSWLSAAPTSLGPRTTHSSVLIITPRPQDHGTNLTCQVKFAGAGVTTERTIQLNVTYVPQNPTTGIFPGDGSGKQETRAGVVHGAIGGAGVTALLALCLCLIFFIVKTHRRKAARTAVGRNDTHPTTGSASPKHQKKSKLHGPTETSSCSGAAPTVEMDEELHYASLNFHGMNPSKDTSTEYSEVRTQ
READOUT_NAME: geometric mean MFI fold change over Jurkat parental

[
  {
    "BINDER": "Polypeptide No. 13 (scFv, V domains shown, scFv) VH: QVQLVQSGAEVKKPGASVKVSCKASGYSFTGYYMHWVRQAPGQGLEWMGWINPNSGGTYFAQNFQGRVTMTRDTSTSTVYMELSSLRSEDTAVYYCVKDRGDRVVTSYLDYWGQGTLVTVSS VL: DIQMTQSPSSLSASVGDRVTITCRASQGIRNWLAWYQQKPGKAPKLLIYAASSLQSGVPSRFSGSGSGTDFTLTISSLQPEDFATYYCQQSYRTPYTFGQGTKLEIKR",
    "REPORTED_VALUE": "< 2 fold"
  },
  {
    "BINDER": "Polypeptide No. 36 (scFv, V domains shown, scFv) VH: QVQLVQSGAEVKKPGASVKVSCKASGGTFSSYAISWVRQAPGQGLEWLGIISPSGRSAGYGRKFQGRVTMTRDTSTSTVYMELSSLRSEDTAVYYCARTDYGGHKWYFDLWGRGTLVTVSS VL: DIQMTQSPSSLSASVGDRVTITCQASQGINNYLNWYQQKPGKAPKLLIYAASTLQRGVPSRFSGSGSGTDFTLTISSLQPEDFATYYCQQSYQTPLTFGGGTKVEIKR",
    "REPORTED_VALUE": "2 to 10 fold"
  },
  {
    "BINDER": "Polypeptide No. 6 (scFv, V domains shown, scFv) VH: QVQLVQSGAEVKKPGASVKVSCKASGYTFTAYYTHWVRQAPGQGLEWMGWMNPNSGHTSYAQKFQGRVTMTRDTSTSTVYMELSSLRSEDTAVYYCAREAYDSFDYWGQGTLVTVSS VL: DIQMTQSPSSLSASVGDRVTITCRASQSISSYLNWYQQKPGKAPKLLIYEASTLETGVPSRFSGSGSGTDFTLTISSLQPEDFATYYCQQANSFPFTFGPGTKVDIKR",
    "REPORTED_VALUE": "< 2 fold"
  }
]
